# System: F508del-CFTR (Homo sapiens, UniProt P13569, DEL508-508)
# Sequence (P13569 with tags, fused parts or gaps DEL508-508): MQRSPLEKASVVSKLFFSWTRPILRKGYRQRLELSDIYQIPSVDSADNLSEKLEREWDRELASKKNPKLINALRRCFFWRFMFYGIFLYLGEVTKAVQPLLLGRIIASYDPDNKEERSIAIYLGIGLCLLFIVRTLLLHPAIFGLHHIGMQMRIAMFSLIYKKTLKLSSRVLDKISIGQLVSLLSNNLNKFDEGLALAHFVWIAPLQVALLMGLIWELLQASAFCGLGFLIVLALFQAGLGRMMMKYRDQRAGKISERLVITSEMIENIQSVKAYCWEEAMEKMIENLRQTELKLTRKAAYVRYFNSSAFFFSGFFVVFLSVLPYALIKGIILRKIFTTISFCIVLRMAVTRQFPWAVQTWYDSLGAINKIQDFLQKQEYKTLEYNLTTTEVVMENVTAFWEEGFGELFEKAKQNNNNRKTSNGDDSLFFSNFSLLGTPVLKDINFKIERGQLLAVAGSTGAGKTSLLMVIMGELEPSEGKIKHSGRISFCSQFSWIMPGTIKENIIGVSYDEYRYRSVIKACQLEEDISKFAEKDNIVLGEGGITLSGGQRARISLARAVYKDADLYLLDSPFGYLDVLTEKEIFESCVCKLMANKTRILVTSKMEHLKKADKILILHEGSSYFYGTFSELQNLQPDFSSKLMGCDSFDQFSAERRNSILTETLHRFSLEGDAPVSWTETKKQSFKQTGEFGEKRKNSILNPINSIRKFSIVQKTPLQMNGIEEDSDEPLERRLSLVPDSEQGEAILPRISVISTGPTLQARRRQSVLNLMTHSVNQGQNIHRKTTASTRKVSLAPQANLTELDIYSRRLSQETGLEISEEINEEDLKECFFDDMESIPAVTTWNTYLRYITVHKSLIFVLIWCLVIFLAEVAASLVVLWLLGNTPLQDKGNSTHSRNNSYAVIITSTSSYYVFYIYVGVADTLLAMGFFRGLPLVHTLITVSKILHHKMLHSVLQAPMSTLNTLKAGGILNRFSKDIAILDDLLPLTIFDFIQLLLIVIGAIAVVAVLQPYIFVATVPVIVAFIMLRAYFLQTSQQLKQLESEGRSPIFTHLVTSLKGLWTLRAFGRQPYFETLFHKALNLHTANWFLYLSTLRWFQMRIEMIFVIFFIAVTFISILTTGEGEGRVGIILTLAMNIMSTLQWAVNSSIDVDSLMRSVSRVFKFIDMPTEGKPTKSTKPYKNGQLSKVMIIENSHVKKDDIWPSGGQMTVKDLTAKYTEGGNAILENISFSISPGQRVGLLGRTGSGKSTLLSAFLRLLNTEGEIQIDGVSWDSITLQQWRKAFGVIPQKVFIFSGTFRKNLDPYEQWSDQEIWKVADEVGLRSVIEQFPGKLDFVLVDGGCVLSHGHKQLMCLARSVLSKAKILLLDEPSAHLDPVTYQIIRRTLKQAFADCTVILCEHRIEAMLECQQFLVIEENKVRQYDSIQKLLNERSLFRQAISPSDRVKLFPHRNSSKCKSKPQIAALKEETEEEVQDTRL
# Assay Name: HS-YFP kinetic fluorescence (iodide quenching rate) assay in CFBE41o− cells
# Format: cell-based
# Parameters: expressed in transfected cells; host or cells: CFBE41o- cells with expression of F508del-CFTR and HS-YFP (generated as in Sondo et al. 2011)
# Measurement Setup: Table 3; compound at 10 μM plus VX-809; (QRTOT-QRVX)/QRVX
Quantity Measured: AI additivity index (%)

structure_string=CCOC(=O)c1c(Br)c2c(n1Cc1ccc(C)c(C)c1)-c1nc(NS(=O)(=O)c3ccccc3)ncc1CC2 system="F508del-CFTR (Homo sapiens, UniProt P13569, DEL508-508)" quantity_measured="AI additivity index" result_unit=% observed_measurement=128
structure_string=CCOC(=O)c1c(Br)c2c(n1Cc1ccc(Br)cc1)-c1nc(NS(=O)(=O)c3ccccc3)ncc1CC2 system="F508del-CFTR (Homo sapiens, UniProt P13569, DEL508-508)" quantity_measured="AI additivity index" result_unit=% observed_measurement=98
structure_string=CCOC(=O)c1c(Br)c2c(n1Cc1cccc(C)c1)-c1nc(NS(=O)(=O)c3ccccc3)ncc1CC2 system="F508del-CFTR (Homo sapiens, UniProt P13569, DEL508-508)" quantity_measured="AI additivity index" result_unit=% observed_measurement=152

[P] CCOC(=O)c1c(Br)c2c(n1Cc1ccc(C)cc1)-c1nc(NS(=O)(=O)c3ccccc3)ncc1CC2
[Q] CCOC(=O)c1c(Br)c2c(n1Cc1cccc(C)c1)-c1nc(N)ncc1CC2
### Prompt I'd appreciate it if you could identify which of P and Q has the greater AI additivity index. # answer = label of selected item
### Response P
(P: 134%, Q: 4%)

[a] CCOC(=O)c1cc2c(n1Cc1ccc(C)cc1)-c1nc(NS(=O)(=O)c3ccccc3)ncc1CC2
[b] CCOC(=O)c1cc2c(n1Cc1cccc(C)c1)-c1nc(NS(=O)(=O)c3ccccc3)ncc1CC2
### Prompt Which of these two has the smaller recorded AI additivity index: a or b ? Kindly give the label for the entry you pick.
### Response a

====

# System: F508del-CFTR (Homo sapiens, UniProt P13569, DEL508-508)
# Assay Name: HS-YFP kinetic fluorescence (iodide quenching rate) assay in CFBE41o− cells
# Assay type: cell-based
# Parameters: expressed in transfected cells; host or cells: CFBE41o- cells with expression of F508del-CFTR and HS-YFP (generated as in Sondo et al. 2011)
# Measurement Setup: Table 1; compound at 10 μM plus VX-809; (QRTOT − QRVX)/QRVX, HS-YFP assay
Quantity Measured: AI (%) additivity index

Use these answered entries as a reference point.
structure_string=Cc1cccc(Cn2c(C(=O)NC(C)C)c(Br)c3c2-c2[nH]c(=O)c(S(=O)(=O)c4ccccc4)cc2CC3)c1 observed_measurement=208
structure_string=CCOC(=O)c1cc2c(n1Cc1ccc(C)nc1)-c1[nH]c(=O)c(S(=O)(=O)c3ccccc3)cc1CC2 observed_measurement=62
structure_string=CCOC(=O)c1cc2c(n1Cc1ccc(I)cc1)-c1[nH]c(=O)c(S(=O)(=O)c3ccccc3)cc1CC2 observed_measurement=95
structure_string=CCOC(=O)c1cc2c(n1CC1CC1)-c1[nH]c(=O)c(S(=O)(=O)c3ccccc3)cc1CC2 observed_measurement=235
structure_string=CCOC(=O)c1c(Br)c2c(n1Cc1ccc(F)cc1)-c1[nH]c(=O)c(S(=O)(=O)c3ccccc3)cc1CC2 observed_measurement=442

[P] CCOC(=O)c1c(Br)c2c(n1Cc1ccc(C)c(C)c1)-c1[nH]c(=O)c(S(=O)(=O)c3ccccc3)cc1CC2
[Q] COC(=O)c1c(Br)c2c(n1Cc1ccccc1C)-c1[nH]c(=O)c(S(=O)(=O)c3ccccc3)cc1CC2
### Prompt Which item exceeds the other in AI (%) additivity index, P or Q ? Mark your selection by writing its label.
### Response P
(P: 335%, Q: 133%)

====

# System: F508del-CFTR (Homo sapiens, UniProt P13569, DEL508-508)
# Assay Name: HS-YFP kinetic fluorescence (iodide quenching rate) assay in CFBE41o− cells
# Type: cell-based
# Set-up: expressed in transfected cells; host or cells: CFBE41o- cells with expression of F508del-CFTR and HS-YFP (generated as in Sondo et al. 2011)
# Measurement Setup: Table 1; compound at 10 μM plus VX-809; (QRTOT − QRVX)/QRVX, HS-YFP assay
Quantity Measured: AI (%) additivity index

Worked examples follow.
compound=CCOC(=O)c1cc2c(n1Cc1cccc(C)c1)-c1[nH]c(=O)c(S(=O)(=O)c3ccccc3)cc1CC2 observed_measurement=42
compound=CCOC(=O)c1c(Br)c2c(n1Cc1ccc(C)cc1)-c1[nH]c(=O)c(S(C)(=O)=O)cc1CC2 observed_measurement=23
compound=Cc1ccc(Cn2c(C(=O)O)c(Br)c3c2-c2[nH]c(=O)c(S(=O)(=O)c4ccccc4)cc2CC3)cc1C observed_measurement=11

[P] CCOC(=O)c1cc2c(n1Cc1ccc(C)cc1)-c1[nH]c(=O)c(S(C)(=O)=O)cc1CC2
[Q] Cc1ccc(Cn2c(C(=O)NC(C)C)c(Br)c3c2-c2[nH]c(=O)c(S(=O)(=O)c4ccccc4)cc2CC3)cc1
[R] CCOC(=O)c1c(Br)c2c(n1Cc1ccc(C(F)(F)F)cc1)-c1[nH]c(=O)c(S(=O)(=O)c3ccccc3)cc1CC2
[S] CCOC(=O)c1c(Br)c2c(n1Cc1ccccc1C)-c1[nH]c(=O)c(S(=O)(=O)c3ccccc3)cc1CC2
### Prompt Rank entries according to their AI (%) additivity index, from the largest number down. Please list each label once, in the requested order.
### Response S, Q, R, P

[A] CCOC(=O)c1cc2c(n1Cc1ccccc1C)-c1[nH]c(=O)c(S(=O)(=O)c3ccccc3)cc1CC2
[B] Cc1cccc(Cn2c(C(N)=O)cc3c2-c2[nH]c(=O)c(S(=O)(=O)c4ccccc4)cc2CC3)c1 [PP082]
### Prompt I'm curious, which of these has a smaller AI (%) additivity index number: A or B ? Your answer should be the label of the entry you select.
### Response B
(B: 31%, A: 124%)

[I] CCOC(=O)c1cc2c(n1C)-c1[nH]c(=O)c(S(=O)(=O)c3ccccc3)cc1CC2
[II] CCOC(=O)c1cc2c(n1Cc1ccccc1)-c1[nH]c(=O)c(S(=O)(=O)c3ccccc3)cc1CC2
### Prompt Param pair: I , II . Output: the one whose AI (%) additivity index is numerically greater. Give the label of your selection.
### Response II

[a] Cc1cccc(Cn2c(C(=O)NC3CC3)cc3c2-c2[nH]c(=O)c(S(=O)(=O)c4ccccc4)cc2CC3)c1 [PP092]
[b] CC(C)OC(=O)c1cc2c(n1CC1CC1)-c1[nH]c(=O)c(S(=O)(=O)c3ccccc3)cc1CC2
[c] Cc1cccc(Cn2c(C(=O)O)cc3c2-c2[nH]c(=O)c(S(=O)(=O)c4ccccc4)cc2CC3)c1
### Prompt Sort low-to-high on AI (%) additivity index, please. I would appreciate it if you listed the labels in the requested order.
### Response c, a, b

====

# System: F508del-CFTR (Homo sapiens, UniProt P13569, DEL508-508)
# Assay Name: HS-YFP kinetic fluorescence (iodide quenching rate) assay in CFBE41o− cells
# Type: cell-based
# Design: expressed in transfected cells; host or cells: CFBE41o- cells with expression of F508del-CFTR and HS-YFP (generated as in Sondo et al. 2011)
# Measurement Setup: Table 6; compound at 10 μM plus VX-809; (QRTOT-QRVX)/QRVX
Quantity Measured: AI (%) additivity index

structure_string=CCOC(=O)c1nn(Cc2ccc(C)cc2)c2c1CCc1cc(S(=O)(=O)c3ccccc3)c(=O)[nH]c1-2 observed_measurement=88

[P] CCOC(=O)c1nn(Cc2ccc(Br)cc2)c2c1CCc1cc(S(=O)(=O)c3ccccc3)c(=O)[nH]c1-2
[Q] CCOC(=O)c1nn(Cc2ccc(C)c(C)c2)c2c1CCc1cc(S(=O)(=O)c3ccccc3)c(=O)[nH]c1-2
[R] CCOC(=O)c1nn(Cc2cccc(C)c2)c2c1CCc1cc(S(=O)(=O)c3ccccc3)c(=O)[nH]c1-2
[S] CCOC(=O)c1c2c(nn1Cc1ccc(C)c(C)c1)-c1[nH]c(=O)c(S(=O)(=O)c3ccccc3)cc1CC2
### Prompt Sort low-to-high on AI (%) additivity index, please. As an answer, provide the labels arranged in the order called for.
### Response S, P, Q, R

====

# System: F508del-CFTR (Homo sapiens, UniProt P13569, DEL508-508)
# Assay Name: HS-YFP kinetic fluorescence (iodide quenching rate) assay in CFBE41o− cells
# Format: cell-based
# Parameters: expressed in transfected cells; host or cells: CFBE41o- cells with expression of F508del-CFTR and HS-YFP (generated as in Sondo et al. 2011)
# Measurement Setup: Table 1; compound at 10 μM plus VX-809; (QRTOT − QRVX)/QRVX, HS-YFP assay
# Method: CFBE41o- cells, with expression of F508del-CFTR and halogen-sensitive fluorescent protein, were generated as previously described (Sondo E, et al. Am J Physiol. 2011, 301, […]-[…]). […] In a microplate reader (FLUOstar-Omega, BMG) the fluorescence of the cells in each well was read for 14 seconds, with an injection of 165 μl of a iodide-enriched saline (modified PBS where NaCl, 137 mM, has been replaced with the same concentration of NaI). […]
Quantity Measured: AI (%) additivity index

Here is how some compounds turned out for AI (%) additivity index.
compound="Cc1cccc(Cn2c(C(=O)NC(C)(C)C)c(Br)c3c2-c2[nH]c(=O)c(S(=O)(=O)c4ccccc4)cc2CC3)c1 [PP101]" quantity_measured="AI (%) additivity index" observed_measurement=249
compound="CCOC(=O)c1cc2c(n1Cc1ccc(C(F)(F)F)cc1)-c1[nH]c(=O)c(S(=O)(=O)c3ccccc3)cc1CC2 [PP070]" quantity_measured="AI (%) additivity index" observed_measurement=101
compound="CCOC(=O)c1c(I)c2c(n1Cc1ccc(C)cc1)-c1[nH]c(=O)c(S(=O)(=O)c3ccccc3)cc1CC2 [PP077]" quantity_measured="AI (%) additivity index" observed_measurement=202
compound="Cc1cccc(Cn2c(C(=O)OC(C)C)cc3c2-c2[nH]c(=O)c(S(=O)(=O)c4ccccc4)cc2CC3)c1 [PP103]" quantity_measured="AI (%) additivity index" observed_measurement=284
compound="Cc1ccc(Cn2c(C(=O)OC(C)C)cc3c2-c2[nH]c(=O)c(S(=O)(=O)c4ccccc4)cc2CC3)cc1 [PP022]" quantity_measured="AI (%) additivity index" observed_measurement=279
compound="CCOC(=O)c1cc2c(n1Cc1ccc(C)c(C)c1)-c1[nH]c(=O)c(S(=O)(=O)c3ccccc3)cc1CC2 [PP025]" quantity_measured="AI (%) additivity index" observed_measurement=178

[P] CC(C)NC(=O)c1c(Br)c2c(n1Cc1ccc(Br)cc1)-c1[nH]c(=O)c(S(=O)(=O)c3ccccc3)cc1CC2 [PP097]
[Q] COC(=O)c1cc2c(n1Cc1ccc(C)cc1)-c1[nH]c(=O)c(S(=O)(=O)c3ccccc3)cc1CC2 [PP019]
[R] CCOC(=O)c1c(Cl)c2c(n1Cc1ccc(C)cc1)-c1[nH]c(=O)c(S(=O)(=O)c3ccccc3)cc1CC2 [PP076]
### Prompt # sort list by recorded AI (%) additivity index, greatest to least Present the labels in the sequence the task asks for.
### Response R, P, Q

[I] O=C(NC1CC1)c1c(Br)c2c(n1Cc1ccc(Br)cc1)-c1[nH]c(=O)c(S(=O)(=O)c3ccccc3)cc1CC2 [PP099]
[II] CC(C)OC(=O)c1c(Br)c2c(n1CC1CC1)-c1[nH]c(=O)c(S(=O)(=O)c3ccccc3)cc1CC2 [PP106]
### Prompt Lower value for measured AI (%) additivity index? Options: I , II Response format: the label of the selected entry.
### Response I
(I: 82%, II: 277%)

[A] CCOC(=O)c1c(Br)c2c(n1Cc1ccc(C)nc1)-c1[nH]c(=O)c(S(=O)(=O)c3ccccc3)cc1CC2 [PP067]
[B] CCOC(=O)c1cc2c(n1Cc1ccc(Cl)cc1)-c1[nH]c(=O)c(S(=O)(=O)c3ccccc3)cc1CC2 [PP017]
### Prompt Of A and B , whose reported AI (%) additivity index is the larger number? Your choice should be expressed through its label.
### Response B
(B: 203%, A: 81%)
